The reported numbers originate from paper PMC8161390.

# Tested on: Inland Silverside (Menidia beryllina)
# test-description: Inland Silverside embryo-to-larva 12-day exposure bioassay (mortality, dose-response)
# details: 5 PSU salinity; <24 hpf embryos to 96 hph larvae, 12 days; nominal concentrations

# compound, target-entity, measurement-units, 5 PSU LC10
rows = [
    ("CCCC(Cn1cncn1)c1ccc(Cl)cc1Cl (stereo not shown)", "Inland Silverside (Menidia beryllina)", "ng/mL", 0.235),
    ("CCOP(=S)(OCC)Oc1nc(Cl)c(Cl)cc1Cl", "Inland Silverside (Menidia beryllina)", "ng/mL", 0.137),
    ("C[n+]1ccc(-c2cc[n+](C)cc2)cc1 [Paraquat, paraquat dichloride hydrate]", "Inland Silverside (Menidia beryllina)", "ng/mL", 54.7),
    ("Cc1c(COC(=O)[C@@H]2[C@H](/C=C(\\Cl)C(F)(F)F)C2(C)C)cccc1-c1ccccc1 (racemic)", "Inland Silverside (Menidia beryllina)", "ng/mL", 0.0227),
]

###

# test-description: Inland Silverside embryo-to-larva 12-day exposure bioassay (mortality, dose-response)
# details: Menidia beryllina (Inland Silverside), in vivo, 5 PSU LC50, 5 PSU salinity, <24 hpf embryos to 96 hph larvae, nominal concentrations
# Procedure: Inland Silverside embryos were removed from the spawning substrate, assessed for fertilization with a VWR VistaVision Dissecting Scope (VWR International, Radnor, PA, USA), and randomly placed in exposure wells with 1 mL of clean artificial seawater (ASW) made from reverse osmosis water and Instant Ocean Sea Salt (Spectrum Brands, Blacksburg, VA, USA). […]
measured-metric: log10(LC50 at 12 days) (log10 of the value in µg/mL)

# molecule, recorded-value
records = [
    ("CCCCC(C#N)(Cn1cncn1)c1ccc(Cl)cc1 (centres unmarked)", 0.58),
    ("CCOP(=S)(OCC)Oc1nc(Cl)c(Cl)cc1Cl", -2.10),
    ("Cc1c(COC(=O)[C@@H]2[C@H](/C=C(\\Cl)C(F)(F)F)C2(C)C)cccc1-c1ccccc1 (racemic)", -3.80),
    ("CCCC(Cn1cncn1)c1ccc(Cl)cc1Cl (centres unmarked)", -0.97),
    ("C[n+]1ccc(-c2cc[n+](C)cc2)cc1 [Paraquat, paraquat dichloride hydrate]", 1.57),
]

###

Quick reference for 15 PSU LC10 among some molecules
# Test system: Inland Silverside (Menidia beryllina)
# test-description: Inland Silverside embryo-to-larva 12-day exposure bioassay (mortality, dose-response)
# details: 15 PSU salinity; <24 hpf embryos to 96 hph larvae, 12 days; nominal concentrations

# molecule, target-entity, measurement-units, 15 PSU LC10
measured = [
    ("Cc1c(COC(=O)[C@@H]2[C@H](/C=C(\\Cl)C(F)(F)F)C2(C)C)cccc1-c1ccccc1 (racemic) [Bifenthrin, bifenthrin]", "Inland Silverside (Menidia beryllina)", "ng/mL", 0.00533),
    ("CCCC(Cn1cncn1)c1ccc(Cl)cc1Cl (stereo not shown) [Penconazole, penconazole]", "Inland Silverside (Menidia beryllina)", "ng/mL", 0.0244),
    ("C[n+]1ccc(-c2cc[n+](C)cc2)cc1 [Paraquat, paraquat dichloride hydrate]", "Inland Silverside (Menidia beryllina)", "ng/mL", 24.5),
    ("CCOP(=S)(OCC)Oc1nc(Cl)c(Cl)cc1Cl [Chlorpyrifos, chlorpyrifos]", "Inland Silverside (Menidia beryllina)", "ng/mL", 0.0393),
]
